Reference for the values: patent US20190211071A1

# MEASURED TARGET: T1, rat NPR-A (rat, UniProt P18910 29-1057)
# T1 sequence (looked up): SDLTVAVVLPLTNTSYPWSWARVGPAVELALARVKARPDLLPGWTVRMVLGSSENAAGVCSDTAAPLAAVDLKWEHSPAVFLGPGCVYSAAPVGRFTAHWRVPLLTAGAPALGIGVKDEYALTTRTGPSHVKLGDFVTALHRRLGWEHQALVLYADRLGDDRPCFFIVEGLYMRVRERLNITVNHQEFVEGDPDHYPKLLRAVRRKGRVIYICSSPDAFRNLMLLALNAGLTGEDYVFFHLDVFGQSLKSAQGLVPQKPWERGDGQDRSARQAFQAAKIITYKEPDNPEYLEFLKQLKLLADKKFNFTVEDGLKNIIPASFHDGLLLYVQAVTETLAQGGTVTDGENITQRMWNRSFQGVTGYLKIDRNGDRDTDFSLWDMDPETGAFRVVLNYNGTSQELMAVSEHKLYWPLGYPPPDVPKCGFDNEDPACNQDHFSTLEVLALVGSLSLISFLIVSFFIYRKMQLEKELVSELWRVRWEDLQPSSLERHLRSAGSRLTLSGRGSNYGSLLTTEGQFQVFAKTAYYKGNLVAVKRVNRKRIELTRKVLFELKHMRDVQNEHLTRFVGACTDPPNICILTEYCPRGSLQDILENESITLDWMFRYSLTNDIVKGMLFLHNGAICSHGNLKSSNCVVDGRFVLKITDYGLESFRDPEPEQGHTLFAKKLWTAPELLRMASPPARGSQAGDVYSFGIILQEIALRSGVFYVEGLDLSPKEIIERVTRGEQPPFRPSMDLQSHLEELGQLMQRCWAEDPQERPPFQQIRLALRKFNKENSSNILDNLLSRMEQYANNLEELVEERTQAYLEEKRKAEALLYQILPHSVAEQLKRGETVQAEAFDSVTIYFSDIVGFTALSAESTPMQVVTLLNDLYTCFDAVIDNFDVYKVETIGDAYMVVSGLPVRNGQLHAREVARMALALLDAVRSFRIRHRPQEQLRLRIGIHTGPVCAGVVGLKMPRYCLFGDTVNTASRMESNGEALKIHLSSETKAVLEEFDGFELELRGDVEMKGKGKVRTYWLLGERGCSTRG
# ASSAY SUMMARY: cell-based or functional assay
Positions of bridges follow the written chain, without caps; N, C: chain ends. No end group written: not given here.
EXPERIMENTAL ENDPOINT: NPR-A activation potency IC50

**Query** Request the reported NPR-A activation potency IC50 associated with GLLISCFDRRIDRISHTSDIGCRH (disulfide 6-22) [K-Ring]
**Result** 244 nM

**Query** Request the reported NPR-A activation potency IC50 associated with GLLISCFGRRIDRISHTSGIGCRH (disulfide 6-22) [^GRGK-Ring]
**Result** 87.7 nM

**Query** Request the reported NPR-A activation potency IC50 associated with GLLISCFGRRIDRISHTSDIGCRH (disulfide 6-22) [^GRDK-Ring]
**Result** 50.7 nM

**Query** Request the reported NPR-A activation potency IC50 associated with GLLISCFDRRIDRISHTSGIGCRH (disulfide 6-22) [^DRGK-Ring]
**Result** 694 nM

**Query** Request the reported NPR-A activation potency IC50 associated with GLLISCFDGRIDRISHTSDIGCRH (disulfide 6-22) [^DGDK-Ring]
**Result** 866 nM

**Query** Request the reported NPR-A activation potency IC50 associated with GLLISCFDRRIDRISHTSDIGCNSFRY (disulfide 6-22) [K-Ring^NSFRY]
**Result** 43.8 nM

**Query** Request the reported NPR-A activation potency IC50 associated with SLRRSSCFDGRMDRIGAQSDLGCNSFRY (disulfide 7-23 (inferred)) [^DGDANP]
**Result** 135 nM

**Query** Request the reported NPR-A activation potency IC50 associated with SLRRSSCFDRRMDRIGAQSDLGCNSFRY (disulfide 7-23 (inferred)) [^DRDANP]
**Result** 45.2 nM
